Values from ChEMBL document CHEMBL1201862

Test system: NCI-H23
PROCEDURE SUMMARY: NCI tumour cell line growth inhibition, 48 h
Active and inactive are the calls of the source. No stated cut-off is given here; in the data, active = GI50 up to about 1.1 µM and inactive = higher.
READOUT: GI50

CC1(C)C(=O)N(CCCCCCN2C(=O)C(C)(C)c3ccccc32)c2ccccc21; 42.6 µM (inactive)
CCO/C=C1\SC(=S)N(c2ccc(OCC)cc2)C1=O; > 100 µM (inactive)
CC(=O)OCC1OC(n2c(-c3ccccc3)c(/N=N/c3ccccc3)c(C)c(C#N)c2=S)C(OC(C)=O)C(OC(C)=O)C1OC(C)=O (configuration not stated); > 100 µM (inactive)
CC(=O)N1CC(C)(C)c2c(C)c(O)c(C)c(C)c21; > 100 µM (inactive)

response.value for O=C1C=Cc2cscc21 (field: GI50) = 21.2 µM (inactive)

Quick note, GI50 for O=C1N(CN2CCOCC2)CN(CN2CCOCC2)C(=O)N1Cc1ccccc1 landed at 17.9 µM (inactive)

Memo: CC1SC(c2ccccc2)N(Nc2c3ccccc3nc3ccccc23)C1=O (configuration not stated) , reported GI50: 50.4 µM (inactive)

In plain terms, O=C1CC(=O)c2c(N3CCCC3)sc(N3CCCC3)c21 has a documented GI50 of > 100 µM (inactive)

According to the records, this compound Cc1ccc(Oc2ccc(C)cc2[N+](=O)[O-])cc1 displays GI50 of 31.5 µM (inactive)

// GI50 lookup, compound = CC1=CC=CC(C)(C)CC1(O[Si](C)(C)C)C(F)(F)F (configuration not stated) , result: > 100 µM (inactive)

COc1ccc2c(c1)C(OC)C1c3c(cc4c(c3-2)OCO4)CCN1C (configuration not stated) yielded GI50 of 2.8 µM (inactive)

Lab note: CN(C)CCNC(=O)c1ccc(Cl)c2c(Nc3ccc(S(=O)(=O)N=C(N)N)cc3)c3ccccc3nc12 gave GI50 of 4.68 µM (inactive)

The compound CC(CC[C@@H](C)C1CCC2[C@@H]3CC(O)C4CC(O)[C@@H](O)C[C@]4(C)C3CC[C@@]21C)C(C)(C)C (some centres not stated) showed GI50 equal to > 100 µM (inactive)

get_value(item= COc1nc(N)c(NC(C)=O)c(=O)n1C , readout=GI50) returns > 100 µM (inactive)

The compound listed as O=C1NC(=N/c2ccccc2)/C(=N\c2ccccc2)N1c1ccccc1 has a reported GI50 of 16.7 µM (inactive)

Looking up CSCCCCCCCCCCOc1ccc(C=C2C(=C(C#N)C#N)c3ccccc3C2=C(C#N)C#N)cc1 , I found its GI50 recorded as 22.1 µM (inactive)

Cc1ccc(NC(=O)/C=C/c2ccccc2)c(C)c1 has a reported GI50 of > 100 µM (inactive)

Sample Cc1ccccc1NC(=S)N/N=C1\C(=O)Nc2ccccc21 ; GI50 observed: > 100 µM (inactive)

response.value for Cn1nc(-c2ccccc2)c(C(=O)/C=C/c2ccc(F)cc2)c(N2CCOCC2)c1=O (field: GI50) = > 10 µM (inactive)

Short answer for N#C/C(=C/NC(=S)NCc1ccccc1)C(N)=O : GI50 was > 100 µM (inactive)

Record summary for CC1(CO)C(O)CCC2(C)C1CCC1CC3CC12CCC3(O)CO (configuration not stated) : reported GI50 = 4.91 µM (inactive)

So for CC1(Cc2cc3c(cc2C2(c4ccc([N+](=O)[O-])cc4)OCCO2)OCO3)OCCO1 , the logged GI50 turned out to be 55.2 µM (inactive)

###

System: NCI-H226
PROCEDURE SUMMARY: NCI tumour cell line growth inhibition, 48 h
Calls of active or inactive are those of the source. Rule as the data show it: active = GI50 up to about 1.1 µM and inactive = higher.
Each entry below carries its reported GI50.

# annotated cases, reported GI50 shown
COc1cc(/C=C/c2ccccn2)cc(OC)c1OC; > 10 µM (inactive)
Cc1ccc(/C=C2/N/C(=N\N=C/C(O)C(O)C(O)C(O)CO)NC2=O)cc1 (centres undefined); > 100 µM (inactive)
CC1SC(c2ccccc2)N(Nc2c3ccccc3nc3ccccc23)C1=O (centres undefined); 55.3 µM (inactive)
O=C1Nc2ccccc2S/C1=C\c1cccc(C(F)(F)F)c1; > 100 µM (inactive)
O=CC(=C(I)I)c1ccccc1; 13.4 µM (inactive)

For this molecule ( COc1cc(C(=O)OC2CC34CCNC35CC(OC5(OC)C2O)c2cc3c(cc24)OCO3)ccc1O (centres undefined) ), measured GI50 is > 100 µM (inactive)

GI50 reported for this molecule CC1(C)S[C@@H]2[C@H](NC(=O)CCC[C@@H](N)C(=O)O)C(=O)N2[C@H]1C(=O)O : > 50 µM (inactive)

Query O=C(N/N=C(COc1ccccc1Cl)\N=C\c1cccnc1)c1ccncc1 yields GI50 of > 100 µM (inactive)

For COc1ccccc1Cn1c2c(c3cc(O)ccc31)C(=O)c1ccccc1C2=O the molecule record lists GI50 as 21.6 µM (inactive)

###

Tested on: MDA-MB-231
PROCEDURE SUMMARY: NCI tumour cell line growth inhibition, 48 h
The source made the active and inactive calls. Rule as the data show it: active = GI50 up to about 1.1 µM and inactive = higher.
READOUT: GI50

Here are 9 compounds together with their reported answers.
C=C1C[C@H]2C=Nc3cc(OCCCOc4cc5c(cc4OC)C(=O)N4CC(=C)C[C@H]4C=N5)c(OC)cc3C(=O)N2C1 [SJG-136]; < 0.0108 µM (active)
C=C(Cl)C(Cl)(CBr)CCC(Cl)C(C)C (stereo not given); 3.95 µM (inactive)
c1ccc2c(CN3CCN(Cc4c[nH]c5ccccc45)CC3)c[nH]c2c1; 14.9 µM (inactive)
O=C(O)c1ccc(C(=O)Nc2cccc3ccccc23)c(C(=O)O)c1; > 100 µM (inactive)
CCO/C=C1\SC(=S)N(c2ccc(OCC)cc2)C1=O; > 100 µM (inactive)
O=C1OC(c2ccccc2)=N/C1=C\c1cn[nH]n1; > 100 µM (inactive)
COc1ccccc1OCC(=N/NC(=O)c1ccncc1)/N=C/c1cccnc1; > 100 µM (inactive)
O=[N+]([O-])C(C(Cl)=C(Cl)Cl)=C(n1nnc2ccccc21)n1nnc2ccccc21; 20.4 µM (inactive)
COc1cc2c(cc1OC)C1CN3CCCC3C(O)C1c1cc(OC)c(OC)cc1-2 (stereo not given); > 100 µM (inactive)

Item: COc1ccccc1Cn1c2c(c3cc(O)ccc31)C(=O)c1ccccc1C2=O | System: MDA-MB-231 | GI50: 12.4 µM (inactive)

###

Test system: NCI-H460
PROCEDURE SUMMARY: NCI tumour cell line growth inhibition, 48 h
Activity calls are given as the source filed them. Cut-off read from the data, not from the text of the source: active = GI50 up to about 1.1 µM and inactive = higher.
Returns: one label drawn from yes (active), no (inactive)

Here's what some known entries look like.
c1ccc(C(=NNc2cnc3ccccc3n2)c2ccccn2)cc1; no
CC(C)(C)c1ccc(CN2CCN(C(c3ccccc3)c3ccc(Cl)cc3)CC2)cc1 (stereo unspecified); no
CC1=NN(C(=O)c2ccccc2O)C(=O)/C1=C/c1ccccc1O; yes
Clc1nc(Cl)c(CBr)c(Cl)n1; no
COc1cccc(-c2nc(O)c3ccccc3n2)c1; no
COc1cc(/C=C(\C#N)C(N)=O)cc(Br)c1O; no
c1ccc2c[n+](CCCC[n+]3ccc4ccccc4c3)ccc2c1; no
N#CCC(=O)Nn1c(CC#N)nnc1Cc1ccccc1; no
COc1ccc(S(=O)(=O)c2ccccc2[N+](=O)[O-])cc1; no
CC12CCC3C(CCC4(O)C=CCCC34C=O)C1(O)CC(O)C2c1ccc(=O)oc1 (stereo unspecified); yes

Next item in the queue.
In: Write down the call the test reported for this compound. Item: [O-][Cl+3]([O-])([O-])O.c1ccc(/N=c2\nc(N3CCOCC3)ss2)cc1
Out: no

###

System: SK-OV-3
PROCEDURE SUMMARY: NCI tumour cell line growth inhibition, 48 h
The source made the active and inactive calls. Rule as the data show it: active = GI50 up to about 1.1 µM and inactive = higher.
READOUT: GI50

Worked cases, answers included:
Br[Se]c1ccccn1; 20.5 µM (inactive)
Cc1cc2c(c(S(=O)(=O)c3ccccc3[N+](=O)[O-])c1)NCCC2; > 100 µM (inactive)
CN(C)C(=O)O/N=C1/C(=C2/C(=O)Nc3ccccc32)Nc2ccccc21; 11.8 µM (inactive)
CC(C)c1ccc2c(c1)C=C1OC(=O)[C@]3(C)CCC[C@@]2(C)C13 (stereo not given in full); > 100 µM (inactive)
COc1cc2cc(C(=O)N3CC(CCl)c4c3cc(NC(=O)C(C)(C)c3ccccc3[N+](=O)[O-])c3ccccc43)[nH]c2c(OC)c1OC (stereo not given); 2.75 µM (inactive)
CCCCN1C=CN2c3nc4cc(C)c(C)cc4n3C(C(=O)OC)=C(C(=O)OC)C12 (stereo not given); > 100 µM (inactive)
O=C1C(Cl)=C(OCCCl)C(=O)c2c(O)ccc(O)c21; 18.2 µM (inactive)
CSc1ccc2c(c1)c(CCN)c(C)n2Cc1ccccc1Cl; 2 µM (inactive)

Entry Nn1c(=O)n(Cc2ccccc2)n(-c2ccccc2)c1=O ; GI50 = > 100 µM (inactive)

# GI50 (molecule: Nc1ccc2nc3ccc(N)cc3[n+](-c3ccccc3)c2c1 ) is > 100 µM (inactive)

The reported value for O=[N+]([O-])C(C(Cl)=C(Cl)Cl)=C(n1nnc2ccccc21)n1nnc2ccccc21 in terms of GI50 is > 43.6 µM (inactive)
